Hello, the source for this data is the supplement of paper PMC12042874, in case you need it.

# assay.remarks: amyloid nucleation score (Sup35N fusion, yeast selection) (log enrichment); library NNK2; higher = more nucleation; inactive = no reads after selection;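 further: zero at mode of non-aggregating sequences after 7 days selection at 30°C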
// classify(record): look up amyloid nucleation score in ranges lower = under 0.02, middle = from 0.02 up to 2, upper = 2 and over

Solved entries (count: 3):
>  <ordered.residues>
QKMLLKIWIVDRNTYSAVLN

>  <group>
lower

$$$$
>  <ordered.residues>
IDYVGYMKWMMV

>  <group>
lower

$$$$
>  <ordered.residues>
YCGLVWVSKYSVTRAFRRNV

>  <group>
lower

$$$$

GET /class?item= `ILSNELFYLLYEW`
upper

GET /class?item= `EICLHLQAYAIKQCGLLGTP`
middle

GET /class?item= `TVSVNLYNFVLQTSY`
upper

GET /class?item= `RMKVDTLIWTPDWMEFVSII`
lower

GET /class?item= `MRPMIFPCYAMSSVSMLTSR`
middle
